# ASSAY SUMMARY: Cmax in mouse at 1 mg/kg, iv
# Assay type: ADME, organism-based
# Set-up: dose 1 mg/kg, route iv
# ASSAY CONDITIONS: in vivo
READOUT TYPE: Cmax (µM)
Give the number; µM is assumed, so skip it.

Notebook: "O=C1N[C@](c2cccc(Nc3ccc(F)cc3)n2)(c2cccc(Nc3ccc(F)c(F)c3)n2)CC(O)=C1Sc1ccccc1Cl" , Cmax read as 7.36

* * *

Record form. Attribute: Papp A→B at 100 µM. Fill in for each entry.
# ASSAY SUMMARY: Apparent permeability across apical to basolateral side in MDCK cells at 100 uM by HPLC analysis
# Format: ADME, cell-based, Canis lupus familiaris
# ASSAY CONDITIONS: dog
Just the number in ×10⁻⁶ cm/s, nothing appended.

Lab book: Papp A→B at 100 µM of O=C1NC(c2ccc(N3CCOCC3)cc2)(c2cccc(Oc3ccc(F)cc3)n2)CC(O)=C1Sc1ccccc1Cl (stereo in doubt; 50) noted as 2.2

Note to self: Papp A→B at 100 µM recorded for "O=C1N[C@](c2cccc(Nc3ccc(F)cc3)n2)(c2cccc(Nc3ccc(F)c(F)c3)n2)CC(O)=C1Sc1ccccc1Cl" was 4.6

* * *

# ASSAY SUMMARY: Oral bioavailability in mouse at 5 mg/kg
# Type: ADME, organism-based
# ASSAY CONDITIONS: in vivo
READOUT TYPE: bioavailability (%)
Only the number, expressed in %, is required.

Field bioavailability (entry "O=C1N[C@](c2cccc(Nc3ccc(F)cc3)n2)(c2cccc(Nc3ccc(F)c(F)c3)n2)CC(O)=C1Sc1ccccc1Cl" ) reads 59.5

* * *

# ASSAY SUMMARY: Half-life in mouse at 1 mg/kg, iv
# Type: ADME, organism-based
# ASSAY CONDITIONS: in vivo
READOUT TYPE: half-life (h)
# value in h; strip the unit string

Measured half-life of "O=C1N[C@](c2cccc(Nc3ccc(F)cc3)n2)(c2cccc(Nc3ccc(F)c(F)c3)n2)CC(O)=C1Sc1ccccc1Cl" : 2.81
